src = patent US20120184556A1

- Assay System: human mGluR4 (Homo sapiens, UniProt Q14833)
- Sequence (Q14833 33-912): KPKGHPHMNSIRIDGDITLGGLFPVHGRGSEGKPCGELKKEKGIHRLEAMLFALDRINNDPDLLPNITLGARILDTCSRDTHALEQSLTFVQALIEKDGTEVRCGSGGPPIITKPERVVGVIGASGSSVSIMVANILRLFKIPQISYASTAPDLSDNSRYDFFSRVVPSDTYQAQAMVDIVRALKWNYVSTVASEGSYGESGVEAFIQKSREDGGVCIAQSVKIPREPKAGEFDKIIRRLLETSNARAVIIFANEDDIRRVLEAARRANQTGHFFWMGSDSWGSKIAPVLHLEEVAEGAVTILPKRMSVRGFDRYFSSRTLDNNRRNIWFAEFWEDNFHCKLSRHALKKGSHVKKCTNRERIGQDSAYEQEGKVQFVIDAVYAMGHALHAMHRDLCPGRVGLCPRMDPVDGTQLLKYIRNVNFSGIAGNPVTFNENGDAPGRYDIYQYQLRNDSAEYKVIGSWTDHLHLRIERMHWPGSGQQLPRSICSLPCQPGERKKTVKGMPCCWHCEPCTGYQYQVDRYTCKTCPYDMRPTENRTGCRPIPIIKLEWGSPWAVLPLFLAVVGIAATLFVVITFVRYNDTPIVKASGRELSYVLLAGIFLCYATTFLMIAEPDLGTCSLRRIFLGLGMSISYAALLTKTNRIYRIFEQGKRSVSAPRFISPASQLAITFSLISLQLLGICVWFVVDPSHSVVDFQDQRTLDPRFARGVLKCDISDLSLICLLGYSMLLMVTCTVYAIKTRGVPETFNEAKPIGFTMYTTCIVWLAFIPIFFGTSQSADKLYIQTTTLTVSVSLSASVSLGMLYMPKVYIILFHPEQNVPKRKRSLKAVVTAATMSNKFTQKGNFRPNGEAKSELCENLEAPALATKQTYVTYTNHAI
- Test Name: human mGluR4 potentiation assay, CHO cells, Fluo-4 calcium fluorescence, agonist EC20
- Condition Info: potentiation of human mGluR4 response to EC20 agonist; read-out: hEC50
pEC50: −log10 of the molar value.
Class condition met: pEC50 at least 6. Class condition not met: pEC50 below 6.

O=S(=O)(Nc1ccccc1Cl)c1ccc2[nH]c(-c3ccccn3)nc2c1 [Example 3] : condition met

Next molecule, please.
Request: hey, is pEC50 for this one >= 6? O=S(=O)(Nc1ccccc1Cl)c1ccc2[nH]c(C3CCCCC3)nc2c1 [Example 4]
Response: condition not met
